Known median seed-adjusted z-score of a selection of sequences
assay: Novel Modifiers of Survival Motor Neuron (SMN) Protein: Gene Identification via Genome-wide siRNA Screen; settings: HEK293T SMN2-luciferase reporter, siRNA knockdown, 72 h; actives lie on both sides;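 further: luminescence tracks full-length SMN protein made from the SMN2 reporter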
In all, about 31,000 sequences went through this assay and about 1,400 (4.5%) were called active. Many of the other results were omitted from the sample, so actives are more common in it than they were.
Output: the number by itself.

Before answering, review these 3 worked examples.
>  <entry_sequence>
GCUACAGUCUCUACCCUGATT against BARX1

>  <reported_result>
1.63

$$$$
>  <entry_sequence>
AAGGUAAAAUUGAAGAGUUTT against SERPINB9

>  <reported_result>
0

$$$$
>  <entry_sequence>
GGACUAUUACAAAUCAAGATT against FLT3

>  <reported_result>
0.418

$$$$

Look at this sequence and give its reported median seed-adjusted z-score. GGUCAUUAUUGGUGAGCAATT against HARS2 0

Quick one: median seed-adjusted z-score for GGAUCCCGCUGCACAAGUUTT against CTSD ? -0.282

Give the measured median seed-adjusted z-score of GGUCAACUCUCUACUGAUATT against ARHGAP29 . -0.0483

For the sequence CCAACGAACAUGUACAACATT against CACNA2D3 , what median seed-adjusted z-score is on record? 0.198

What value of median seed-adjusted z-score has been recorded for this entry: GCACCGAGCUUUACAGUGUTT against LARP1 0.251

Please look up its median seed-adjusted z-score: CUUUUGCCUGUAGCCCAUATT against GCS1 0.819

Looking for the measured median seed-adjusted z-score of GAACAACUCUUGUGAGAUUTT against STC2 , can you help? -0.00039

Using the record for CCAUUUUAGCUCUAGAAGATT against GSTA4 , report its median seed-adjusted z-score. -0.848

Given CAGCAGUUAUGGACCAGUUTT against AMD1 , state its recorded median seed-adjusted z-score. -0.211

Quick check: median seed-adjusted z-score of GAAGAUUGGUGAUCUAGGATT against WNK3 ? -0.466

What value of measured median seed-adjusted z-score is listed for CGUCCUAAUCUCAAUCUUATT against CD200 ? -0.0135

# get_value(readout='median seed-adjusted z-score', item= UCAGUAUCUUGGUCCUGUATT against CALCB ) 0

# get_value(readout='median seed-adjusted z-score', item= CCUUGAUCAUCGACAUUCUTT against GIT1 ) -0.307

Which value of median seed-adjusted z-score has been reported for AAAUGCAAUUCAAGCCUUUTT against GFRA1 in the records? 0.125

* * *

experiment: Novel Modifiers of Survival Motor Neuron (SMN) Protein: Gene Identification via Genome-wide siRNA Screen; settings: HEK293T SMN2-luciferase reporter, siRNA knockdown, 72 h; actives lie on both sides;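 further: luminescence tracks full-length SMN protein made from the SMN2 reporter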
The whole screen tested about 31,000 sequences, of which about 1,400 (4.5%) were called active. The entries come from a sample that favours actives as a whole.
readout_type: median seed-adjusted z-score
Reply with just the number.

I am curious: what median seed-adjusted z-score value has been reported for GGAAAAGUAUGAACUGAAATT against TREM1 ? 0

Recorded median seed-adjusted z-score of CAUGAUAUCUGGACCCAAATT against SSX3 , please. 0

Request the reported median seed-adjusted z-score associated with GCCGAACUAUCUGAGAAUATT against PCDH1 -0.514

Item under review: CCAUGAUCCUGUGGAUAAATT against HNRNPA2B1 . Reported median seed-adjusted z-score? 1.33

// returns reported median seed-adjusted z-score for input GGAAAAUCAAUAUAUCACUTT against ADH6 -0.132

* * *

test: Novel Modifiers of Survival Motor Neuron (SMN) Protein: Gene Identification via Genome-wide siRNA Screen; conditions: HEK293T SMN2-luciferase reporter, siRNA knockdown, 72 h; actives lie on both sides;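 further: luminescence tracks full-length SMN protein made from the SMN2 reporter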
Among all 31,000 sequences or so, about 1,400 (4.5%) were called active. Shown is part of a subset that was picked to be rich in actives.
readout_type: median seed-adjusted z-score
Write no unit; give the number alone.

Observe how each entry below is paired with its result.
>  <entry_sequence>
GCAACAUAUGGGAAUUAGATT against MEIS1

>  <reported_result>
0

$$$$
>  <entry_sequence>
CCAGAAAGCUUCAUCCACATT against MC1R

>  <reported_result>
-0.64

$$$$
>  <entry_sequence>
GACUGACAUUGAGAUUACATT against CCT3

>  <reported_result>
-0.416

$$$$
>  <entry_sequence>
GGACUUACACUCUUAGGAATT against MAOB

>  <reported_result>
0

$$$$

Then there is this sequence:
Return reported median seed-adjusted z-score; argument: GGCCGAGUGUACUACUUCATT against PIN1 0.156

* * *

assay: Novel Modifiers of Survival Motor Neuron (SMN) Protein: Gene Identification via Genome-wide siRNA Screen; details: HEK293T SMN2-luciferase reporter, siRNA knockdown, 72 h; actives lie on both sides;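 further: luminescence tracks full-length SMN protein made from the SMN2 reporter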
The whole screen tested about 31,000 sequences, of which about 1,400 (4.5%) were called active. The full list was thinned out, with actives kept by preference.
readout_type: median seed-adjusted z-score
Give the value as a plain number.

Use the examples below as a reference point.
>  <entry_sequence>
GACUGUCUUUGAAAAGAGATT against HESX1

>  <median seed-adjusted z-score>
0.3

$$$$
>  <entry_sequence>
GGCAUGAAGUGAAGGAUGATT against ZNF134

>  <median seed-adjusted z-score>
-0.0978

$$$$
>  <entry_sequence>
GAAUAUGAGUACCUAGAUUTT against SELPLG

>  <median seed-adjusted z-score>
0.0378

$$$$
>  <entry_sequence>
AGAAGAUUCUUGUAUUUAUTT against IL24

>  <median seed-adjusted z-score>
-0.125

$$$$
>  <entry_sequence>
AACUGAACAUAGCAGAAUUTT against ZNF85

>  <median seed-adjusted z-score>
-1.01

$$$$
>  <entry_sequence>
CCAUGUAUCUGAGUGAUCATT against ERC2

>  <median seed-adjusted z-score>
0.172

$$$$

# query: median seed-adjusted z-score of entry AGAUCAAGGUGUACGAGAUTT against KIF26A -0.428

# median seed-adjusted z-score lookup, item ACCGAGACCUCAAACCUGATT against PSKH1 -2.03
